The reader will find reported growth values listed item by item below.
- Tested on: RPMI-8226 leukemia
- Assay text: NCI-60 one-dose screen, 48 h (100 = growth as untreated, 0 = no growth, -100 = all killed)
- Experimental conditions: 10 µM unless noted
Compounds without any hit were thinned out: in the full panel of roughly 83,000, 20% have a hit.
Measurement name: growth (%)

[[record]]
molecule = "COc1ccc(C2=NN(c3ccccc3)C(c3ccc(OCc4ccccc4)c(OC)c3)C2)cc1OC (stereo not given)"
numeric_readout = 120

[[record]]
molecule = "NC(=S)Nc1cccc(NC(N)=S)c1"
numeric_readout = 109

[[record]]
molecule = "S=c1c2ccccc2nc2n1CCc1c-2[nH]c2ccccc12"
numeric_readout = 89.5

[[record]]
molecule = "CCOC(=O)c1ccc(Nc2nc(NN)nc(-c3ccc(OC)cc3)c2C#N)cc1"
numeric_readout = 92

[[record]]
molecule = "CCOC(=O)COc1c(OC)c(OC)cc2oc(-c3cccc(C(=O)Nc4ccc(Cl)cc4)c3)cc(=O)c12"
numeric_readout = 38.5

[[record]]
molecule = "N#Cc1c(-c2cccc3ccccc23)cc(-c2cccc(OCC(=O)O)c2)[nH]c1=O"
numeric_readout = 96.5

[[record]]
molecule = "CCOP(=O)(OCCCl)c1nc(-c2ccc(C)cc2)oc1NCc1ccccc1 (stereo not given)"
numeric_readout = 43.2

[[record]]
molecule = "O=c1[nH]c2ccccc2cc1CSc1cccc(Nc2nccc(-c3ccc4ccccc4c3)n2)c1"
numeric_readout = 49.4

[[record]]
molecule = "CC(C)c1sc(NC(=O)c2cc(NC(=O)c3cc(NC(=O)c4nccn4C)cn3C)cn2C)nc1C(=O)NCCCN(C)C"
numeric_readout = 104

[[record]]
molecule = "O=[N+]([O-])c1ccc(/C=C/c2nc3ccccc3n3c(=S)[nH]nc23)cc1"
numeric_readout = 56.5


----------
- System: MALME-3M melanoma
- Assay text: NCI-60 one-dose screen, 48 h (100 = growth as untreated, 0 = no growth, -100 = all killed)
- Experimental conditions: 10 µM unless noted
The panel holds about 83,000 compounds, 20% with a hit somewhere; the sample as a whole holds those more often.
Measurement name: growth (%)

[[record]]
molecule = "COc1ccc(NC(=O)Nc2ccc(OCc3ccc(F)cc3)cc2)cc1"
measurement_name = "growth"
numeric_readout = 62.3

[[record]]
molecule = "C[C@H]1CN(C(=O)c2ccc3c(NNC(=O)c4ccncn4)nc4cc(F)c(F)cc4n23)CCN1"
measurement_name = "growth"
numeric_readout = 33.6

[[record]]
molecule = "N#Cc1c(-c2cccc(Cl)c2Cl)cc(-c2c[nH]c3ccccc23)[nH]c1=O"
measurement_name = "growth"
numeric_readout = 54.4

[[record]]
molecule = "Cc1ccc(S(=O)(=O)c2nc(S(=O)(=O)c3ccc(C)cc3)c(N3CCC(O)CC3)s2)cc1"
measurement_name = "growth"
numeric_readout = 92.2

[[record]]
molecule = "Cc1ccc(/C=C/c2n(Cc3ccc4ccccc4c3)c3ccccc3[n+]2Cc2ccc3ccccc3c2)cc1"
measurement_name = "growth"
numeric_readout = -90.2

[[record]]
molecule = "Cn1cc(-c2cc3nc(-c4cn(C)c5ncccc45)cc(N)n3n2)c2cc(Cl)ccc21"
measurement_name = "growth"
numeric_readout = -97.4

[[record]]
molecule = "CC1(C)CC[C@]2(C(=O)O)CC[C@]3(C)C(=CCC4[C@@]5(C)C[C@@H](O)[C@@H]6OC(c7cccc(Br)c7)OC[C@@]6(C)C5CC[C@]43C)C2C1 (stereo partly specified)"
measurement_name = "growth"
numeric_readout = 73.9

[[record]]
molecule = "Cc1cc2nc3c4ccccc4n(CCCN(C)C)c3nc2cc1C"
measurement_name = "growth"
numeric_readout = -89.6

[[record]]
molecule = "COc1ccc(C(=O)/C=C/c2ccc(OCc3ccc(F)cc3)c(OC)c2)cc1OC"
measurement_name = "growth"
numeric_readout = 61.4

[[record]]
molecule = "C#CCOc1cc(N(CC)CC)ccc1C(C(=O)NC(C)(C)C)N(C(=O)C1CCc2cc(F)ccc2O1)c1ccc(F)c(Cl)c1 (stereo unspecified)"
measurement_name = "growth"
numeric_readout = 81.7

[[record]]
molecule = "CN(C)c1nc(NCCNS(=O)(=O)c2ccc(C3=Nc4c(N)nc(N)nc4NC(c4ccccc4)C3)cc2)nc(Nc2ccc(F)cc2)n1 (stereo unspecified)"
measurement_name = "growth"
numeric_readout = 36.6

[[record]]
molecule = "CCOC(=O)C(N=Nc1ccc(S(=O)(=O)N=C(N)N)cc1)C(C)=O (stereo unspecified)"
measurement_name = "growth"
numeric_readout = 129

[[record]]
molecule = "C(=C\\c1cc(/C=C/c2ccccc2)c2ccccc2n1)/c1ccccc1"
measurement_name = "growth"
numeric_readout = 90.5

[[record]]
molecule = "O=C(c1ccc(Cl)cc1)c1ccc(OCCCN2CCN(c3ccncc3)CC2)cc1"
measurement_name = "growth"
numeric_readout = -54.1

[[record]]
molecule = "N#Cc1ccc(C(=O)Nn2c(N)cc3ccccc3c2=O)cc1"
measurement_name = "growth"
numeric_readout = 77.9

[[record]]
molecule = "CN(C)CCCNC(=O)c1cc(NC(=O)c2cc(NC(=O)c3ccc(/C=C/c4ccccc4)cc3)cn2C)cn1C"
measurement_name = "growth"
numeric_readout = 35

[[record]]
molecule = "CCCCNC(=S)Nc1ccc(OCc2nc3ccccc3[nH]2)cc1"
measurement_name = "growth"
numeric_readout = 77.5

[[record]]
molecule = "O=C(c1ccccc1)c1ccc2nc(-c3cccc(Cl)c3)[nH]c2c1"
measurement_name = "growth"
numeric_readout = 111

[[record]]
molecule = "CC(C)c1ccc2c(N)c(C(=O)Nc3cccc(C(F)(F)F)c3)sc2n1"
measurement_name = "growth"
numeric_readout = 80.3

[[record]]
molecule = "Cc1ccc(-c2nc(Nc3ccccc3S(N)(=O)=O)c3ccccc3n2)cc1"
measurement_name = "growth"
numeric_readout = 97.7

[[record]]
molecule = "COc1ccc(NC(=O)[C@H](CO)NC(=O)OC(C)(C)C)cc1C(=O)Nc1cccc(C2CC(=O)c3c(cc(OC)c(OC)c3OC)O2)c1 (stereo partly specified)"
measurement_name = "growth"
numeric_readout = 61.4

[[record]]
molecule = "CC(=O)OC[C@@]1(C)C2CC[C@]3(C)C(CC=C4C5CC(C)(C)CC[C@]5(C(=O)Nc5ccc(F)cc5)CC[C@]43C)[C@@]2(C)C[C@@H](OC(C)=O)[C@@H]1OC(C)=O (stereo partly specified)"
measurement_name = "growth"
numeric_readout = 58.2

[[record]]
molecule = "COc1cc2c(c(OC)c1OC)C(=O)CC(c1cccc(NC(=O)c3cc(NC(=O)[C@H](CO)NC(=O)OC(C)(C)C)ccc3Cl)c1)O2 (stereo partly specified)"
measurement_name = "growth"
numeric_readout = 43.2

[[record]]
molecule = "CC1CN(c2oc(-c3ccc([N+](=O)[O-])cc3)nc2C#N)CC(C)O1 (stereo unspecified)"
measurement_name = "growth"
numeric_readout = 95.7

[[record]]
molecule = "CN1CCN(Cc2ccc(C(=O)Nc3cccc(C#Cc4cccc5[nH]nc(N)c45)c3)cc2C(F)(F)F)CC1"
measurement_name = "growth"
numeric_readout = -82.6

[[record]]
molecule = "Cc1sc2c(c1C)C(c1ccc(Cl)cc1)=N[C@@H](CC(=O)NCCCCCNC(=O)COc1ccc(C3CCC(=O)NC3=O)cc1)c1nnc(C)n1-2 (stereo partly specified)"
measurement_name = "growth"
numeric_readout = 13

[[record]]
molecule = "C=C1CCC2C3(C)COC(c4ccc(F)cc4)OC3CCC2(C)C1C/C=C1/C(=O)OCC1O (stereo unspecified)"
measurement_name = "growth"
numeric_readout = -71.9

[[record]]
molecule = "Cc1nc(Nc2ccccn2)sc1C(=O)CC(SCC(=O)Nc1ccc(Cl)cc1)c1ccccc1F (stereo unspecified)"
measurement_name = "growth"
numeric_readout = 27.5

[[record]]
molecule = "O=C(COc1ccc(NC(=O)Nc2ccc(Cl)cc2)cc1)N/N=C/c1ccccc1"
measurement_name = "growth"
numeric_readout = -90.8

[[record]]
molecule = "Cc1cc2nc3c4ccccc4n(CC4=NCCN4)c3nc2cc1C"
measurement_name = "growth"
numeric_readout = -92.7

[[record]]
molecule = "COc1ccc(/C=C2\\C(=O)Nc3ccc(Cl)cc32)cc1OCc1ccccn1"
measurement_name = "growth"
numeric_readout = 38.2

[[record]]
molecule = "CC1(C)CC[C@]2(C(=O)O)CC[C@]3(C)C(=CCC4[C@@]5(C)C[C@@H](O)[C@@H]6OC(c7ccccc7Br)OC[C@@]6(C)C5CC[C@]43C)C2C1 (stereo partly specified)"
measurement_name = "growth"
numeric_readout = 44

[[record]]
molecule = "COc1ccc(-c2ccc(SCC(=O)NCCc3ccc(S(N)(=O)=O)cc3)nn2)cc1"
measurement_name = "growth"
numeric_readout = 89.3

[[record]]
molecule = "CSc1ccccc1NC(=O)c1ccc2nnn(/C(C#N)=C/c3ccccn3)c2c1"
measurement_name = "growth"
numeric_readout = -94.7

[[record]]
molecule = "O=C(Nc1ccc(C(F)(F)F)cc1)Nc1ccc2oc(=O)ccc2c1"
measurement_name = "growth"
numeric_readout = -1.86

[[record]]
molecule = "CCOc1ccc(-c2c(C#N)c(-c3ccc(Cl)cc3)nc3n[nH]c(-c4ccc(Cl)cc4)c23)cc1OC"
measurement_name = "growth"
numeric_readout = 46.7

